experiment: Cmax in mouse at 20 mg/kg, po; format: ADME, organism-based; set-up: dose 20 mg/kg, route oral; conditions: in vivo
measured_property: Cmax (µM)

See these solved cases before continuing.
Nc1ncc(-c2cnn([C@H]3CC[C@H](O)CC3)c2)c2cc(-c3cccc4nnsc34)oc12 7.8
CC(=O)N1CCC(n2cc(-c3cnc(N)c4oc(-c5csc6cnccc56)cc34)cn2)CC1 0.03
Nc1ncc(-c2cnn([C@H]3CC[C@H](O)CC3)c2)c2cc(-c3cccc4cnsc34)oc12 1.1

(a) Nc1ncc(-c2cnn([C@H]3CC[C@H](O)CC3)c2)c2c(Cl)c(-c3cccc4nnsc34)oc12
(b) Nc1ncc(-c2cnn([C@H]3CC[C@H](O)CC3)c2)c2c(C(F)F)c(-c3cccc4nnsc34)oc12
Ask: Between a and b , whose recorded Cmax is greater? The response must carry the label of the picked entry.
Reply: b

Where do the numbers come from? From ChEMBL document CHEMBL2407065.
